All figures here come from ChEMBL document CHEMBL1152768.

method: Cytotoxicity against human HEL cells assessed as morphological alteration after 3 days
Format: cell-based
recorded-endpoint: MCC at 72 h (µM)
The answer is to be given in µM; state only the numeric part.

1. CCC1(Cc2ccccc2)OS(=O)(=O)C=C1OCC=C(C)C (racemic)    400

Qu. Please look at this molecule and report its MCC at 72 h: CCC1(Cc2ccccc2)OS(=O)(=O)C=C1OS(=O)(=O)c1ccc(C)cc1 (racemic)
Ans. 400

====

method: Cytotoxicity against human HEL cells assessed as morphological alteration after 3 days
Assay type: cell-based
The following compounds are listed with their measured MCC at 72 h values.

// solved cases for MCC at 72 h follow
1) CCC1(Cc2ccccc2)OS(=O)(=O)C=C1OCCCCc1ccccc1 (racemic)    ≥ 20 µM
2) CCC1(Cc2ccccc2)OS(=O)(=O)C=C1OCc1cccc(Cl)c1 (racemic)    ≥ 20 µM

Qu. Please look at this compound and report its MCC at 72 h: CCC1(Cc2ccccc2)OS(=O)(=O)CC1=O (stereo not given)
Ans. > 100 µM

Qu. Please look at this compound and report its MCC at 72 h: CCC1(Cc2ccccc2)OS(=O)(=O)C=C1OCc1ccc(F)cc1 (racemic)
Ans. ≥ 50 µM

Qu. Please look at this compound and report its MCC at 72 h: CCC1(Cc2ccccc2)OS(=O)(=O)C=C1OCc1ccc(Cl)c(Cl)c1 (racemic)
Ans. ≥ 20 µM

====

method: Cytotoxicity against human HEL cells assessed as reduction of growth after 3 days
Type: cell-based
recorded-endpoint: log10(CC50 at 72 h) (log10 of the value in µM)
log10 CC50 at 72 h, µM

// solved cases for log10(CC50 at 72 h) follow
1) Nc1nc2c(ncn2COCCO)c(=O)[nH]1 [ACYCLOVIR]    2.87
2) CCC1(Cc2ccccc2)OS(=O)(=O)C=C1OS(=O)(=O)c1ccc(C)cc1 (racemic)    2.04
3) CCC1(Cc2ccccc2)OS(=O)(=O)C=C1NCc1ccccc1 (stereo unspecified)    1.96
4) CCC1(Cc2ccccc2)OS(=O)(=O)CC1=O (stereo unspecified)    2.30

Now, please, on to the next compound.
Qu. Please look at this compound and report its log10(CC50 at 72 h): CCC1(Cc2ccccc2)OS(=O)(=O)C=C1OCc1cccc(Cl)c1 (racemic)
Ans. 1.70

====

method: Cytotoxicity against human HEL cells assessed as morphological alteration after 3 days
Assay type: cell-based
recorded-endpoint: MCC at 72 h

Qu. Please look at this molecule and report its MCC at 72 h: CCCC1(Cc2ccccc2)OS(=O)(=O)C=C1OCc1ccccc1 (racemic)
Ans. ≥ 400 µM

Qu. Please look at this molecule and report its MCC at 72 h: O=c1[nH]c(=O)n([C@H]2C[C@H](O)[C@@H](CO)O2)cc1/C=C/Br
Ans. > 150 µM

Qu. Please look at this molecule and report its MCC at 72 h: CCC1(CC)OS(=O)(=O)C=C1OCc1ccccc1
Ans. > 400 µM

Qu. Please look at this molecule and report its MCC at 72 h: CCC1(Cc2ccccc2)OS(=O)(=O)C=C1OC(=O)c1ccccc1 (racemic)
Ans. > 400 µM

Qu. Please look at this molecule and report its MCC at 72 h: CCC1(Cc2ccccc2)OS(=O)(=O)C=C1OCC(=O)OC (racemic)
Ans. > 400 µM

Qu. Please look at this molecule and report its MCC at 72 h: CCC1(Cc2ccccc2)OS(=O)(=O)C=C1OCc1ccc(Cl)cc1 (racemic)
Ans. ≥ 50 µM

Qu. Please look at this molecule and report its MCC at 72 h: O=S1(=O)C=C(OCc2ccccc2)C2(CCc3ccccc3C2)O1 (racemic)
Ans. ≥ 80 µM

Qu. Please look at this molecule and report its MCC at 72 h: CC1(C(c2ccccc2)c2ccccc2)OS(=O)(=O)C=C1OCc1ccccc1 (racemic)
Ans. ≥ 400 µM

Qu. Please look at this molecule and report its MCC at 72 h: CCC1(Cc2ccccc2)OS(=O)(=O)C=C1OCc1ccc(C)cc1 (racemic)
Ans. ≥ 16 µM

Qu. Please look at this molecule and report its MCC at 72 h: CC(C)C1(Cc2ccccc2)OS(=O)(=O)C=C1OCc1ccccc1 (racemic)
Ans. ≥ 80 µM

Qu. Please look at this molecule and report its MCC at 72 h: CCC1(Cc2ccccc2)OS(=O)(=O)C=C1OCCCc1ccccc1 (racemic)
Ans. ≥ 20 µM

Qu. Please look at this molecule and report its MCC at 72 h: CCC1(Cc2ccccc2)OS(=O)(=O)C=C1OCc1ccc(C(C)(C)C)cc1 (racemic)
Ans. ≥ 400 µM

Qu. Please look at this molecule and report its MCC at 72 h: Nc1ccn(C[C@@H](CO)OCP(=O)(O)O)c(=O)n1
Ans. > 150 µM

Qu. Please look at this molecule and report its MCC at 72 h: CC1(Cc2ccccc2)OS(=O)(=O)C=C1OCc1ccccc1 (racemic)
Ans. > 400 µM

====

The following molecules are listed with their measured CC50 at 72 h values.
method: Cytotoxicity against human HEL cells assessed as reduction of growth after 3 days
Format: cell-based

1. CCC1(Cc2ccccc2)OS(=O)(=O)C=C1OCCCCc1ccccc1 (racemic)    99 µM

Qu. Please look at this molecule and report its CC50 at 72 h: O=c1[nH]c(=O)n([C@H]2C[C@H](O)[C@@H](CO)O2)cc1/C=C/Br
Ans. 600 µM

Qu. Please look at this molecule and report its CC50 at 72 h: CCC1(Cc2ccccc2)OS(=O)(=O)C=C1OCC=C(C)C (racemic)
Ans. 112 µM

Qu. Please look at this molecule and report its CC50 at 72 h: CCC1(Cc2ccccc2)OS(=O)(=O)C=C1OCc1ccc(C(F)(F)F)cc1 (racemic)
Ans. 99 µM

Qu. Please look at this molecule and report its CC50 at 72 h: CCC1(Cc2ccccc2)OS(=O)(=O)C=C1OCc1ccc(Br)cc1 (racemic)
Ans. 171 µM

Qu. Please look at this molecule and report its CC50 at 72 h: CCC1(Cc2ccccc2)OS(=O)(=O)C=C1OCC1CCCCC1 (racemic)
Ans. > 200 µM

====

System: Human betaherpesvirus 5
method: Antiviral activity against PMEDAP-resistant HCMV AD169 clone 4 infected in HEL cells assessed as inhibition of virus-induced cytopathicity
Format: functional, organism-based
condition-parameters: Human betaherpesvirus 5, AD169, HEL
recorded-endpoint: pEC50
Scale for pEC50: -log10 of concentration given in mol/L; no unit attached.

Qu. Please look at this molecule and report its pEC50: Nc1ccn(C[C@@H](CO)OCP(=O)(O)O)c(=O)n1
Ans. 7.04

Qu. Please look at this molecule and report its pEC50: Nc1nc(N)c2ncn(CCOCP(=O)(O)O)c2n1
Ans. 4.43

====

Test system: Human alphaherpesvirus 3
method: Antiviral activity against thymidine kinase deficient Varicella zoster virus 07/1 infected in human HEL cells assessed reduction in viral plaque formation
Format: functional, organism-based
condition-parameters: Human alphaherpesvirus 3, HEL
recorded-endpoint: pEC50
Scale for pEC50: -log10 of concentration given in mol/L; no unit attached.

// solved cases for pEC50 follow
1) CCC1(Cc2ccccc2)OS(=O)(=O)C=C1OCc1ccc(Cl)cc1 (racemic)    5.24
2) CCC1(Cc2ccccc2)OS(=O)(=O)C=C1OCc1ccc(F)cc1 (racemic)    5.07
3) CCC1(Cc2ccccc2)OS(=O)(=O)C=C1OCC1CCCCC1 (racemic)    5.15

Qu. Please look at this molecule and report its pEC50: Nc1nc2c(ncn2COCCO)c(=O)[nH]1 [ACYCLOVIR]
Ans. 4.14

Qu. Please look at this molecule and report its pEC50: CCC1(Cc2ccccc2)OS(=O)(=O)C=C1OCc1ccccc1Cl (racemic)
Ans. 5.00

Qu. Please look at this molecule and report its pEC50: CCC1(Cc2ccccc2)OS(=O)(=O)C=C1OCc1ccc(OC)cc1 (racemic)
Ans. 3.97

Qu. Please look at this molecule and report its pEC50: CCC1(CC)OS(=O)(=O)C=C1OCc1ccccc1
Ans. 3.81

Qu. Please look at this molecule and report its pEC50: CCC1(Cc2ccccc2)OS(=O)(=O)C=C1OCc1ccc(C(C)(C)C)cc1 (racemic)
Ans. 5.14

====

method: Cytotoxicity against human HEL cells assessed as morphological alteration after 3 days
Format: cell-based
The following compounds are listed with their measured MCC at 72 h values.

// solved cases for MCC at 72 h follow
1. CCC1(Cc2ccccc2)OS(=O)(=O)C=C1OCC1CCCCC1 (racemic)    ≥ 200 µM
2. CCC1(Cc2ccccc2)OS(=O)(=O)C=C1OCC#N (racemic)    > 400 µM
3. CCC1(Cc2ccccc2)OS(=O)(=O)C=C1NCc1ccccc1 (stereo not given)    ≥ 80 µM
4. C=CCOC1=CS(=O)(=O)OC1(CC)Cc1ccccc1 (racemic)    80 µM
5. CCC1(Cc2ccccc2)OS(=O)(=O)C=C1OCc1ccccc1 (racemic)    ≥ 50 µM

Qu. Please look at this compound and report its MCC at 72 h: CCC1(Cc2ccccc2)OS(=O)(=O)C=C1OCc1ccc(C(F)(F)F)cc1 (racemic)
Ans. ≥ 16 µM

Qu. Please look at this compound and report its MCC at 72 h: CCC1(Cc2ccccc2)OS(=O)(=O)C=C1OCc1ccccc1Cl (racemic)
Ans. ≥ 20 µM

Qu. Please look at this compound and report its MCC at 72 h: CCC1(Cc2ccccc2)OS(=O)(=O)C=C1OCc1ccc(OC)cc1 (racemic)
Ans. ≥ 200 µM

Qu. Please look at this compound and report its MCC at 72 h: CCC1(Cc2ccccc2)OS(=O)(=O)C=C1OC(c1ccccc1)c1ccccc1 (racemic)
Ans. ≥ 80 µM

Qu. Please look at this compound and report its MCC at 72 h: CCC1(Cc2ccccc2)OS(=O)(=O)C=C1OCCCCCCc1ccccc1 (racemic)
Ans. ≥ 20 µM
